Molecular target: HCMV polymerase (Human cytomegalovirus, UniProt P08546)
Construct: made in house; host or cells: recombinant baculovirus-infected SF-9 cells
Sequence (P08546 whole entry): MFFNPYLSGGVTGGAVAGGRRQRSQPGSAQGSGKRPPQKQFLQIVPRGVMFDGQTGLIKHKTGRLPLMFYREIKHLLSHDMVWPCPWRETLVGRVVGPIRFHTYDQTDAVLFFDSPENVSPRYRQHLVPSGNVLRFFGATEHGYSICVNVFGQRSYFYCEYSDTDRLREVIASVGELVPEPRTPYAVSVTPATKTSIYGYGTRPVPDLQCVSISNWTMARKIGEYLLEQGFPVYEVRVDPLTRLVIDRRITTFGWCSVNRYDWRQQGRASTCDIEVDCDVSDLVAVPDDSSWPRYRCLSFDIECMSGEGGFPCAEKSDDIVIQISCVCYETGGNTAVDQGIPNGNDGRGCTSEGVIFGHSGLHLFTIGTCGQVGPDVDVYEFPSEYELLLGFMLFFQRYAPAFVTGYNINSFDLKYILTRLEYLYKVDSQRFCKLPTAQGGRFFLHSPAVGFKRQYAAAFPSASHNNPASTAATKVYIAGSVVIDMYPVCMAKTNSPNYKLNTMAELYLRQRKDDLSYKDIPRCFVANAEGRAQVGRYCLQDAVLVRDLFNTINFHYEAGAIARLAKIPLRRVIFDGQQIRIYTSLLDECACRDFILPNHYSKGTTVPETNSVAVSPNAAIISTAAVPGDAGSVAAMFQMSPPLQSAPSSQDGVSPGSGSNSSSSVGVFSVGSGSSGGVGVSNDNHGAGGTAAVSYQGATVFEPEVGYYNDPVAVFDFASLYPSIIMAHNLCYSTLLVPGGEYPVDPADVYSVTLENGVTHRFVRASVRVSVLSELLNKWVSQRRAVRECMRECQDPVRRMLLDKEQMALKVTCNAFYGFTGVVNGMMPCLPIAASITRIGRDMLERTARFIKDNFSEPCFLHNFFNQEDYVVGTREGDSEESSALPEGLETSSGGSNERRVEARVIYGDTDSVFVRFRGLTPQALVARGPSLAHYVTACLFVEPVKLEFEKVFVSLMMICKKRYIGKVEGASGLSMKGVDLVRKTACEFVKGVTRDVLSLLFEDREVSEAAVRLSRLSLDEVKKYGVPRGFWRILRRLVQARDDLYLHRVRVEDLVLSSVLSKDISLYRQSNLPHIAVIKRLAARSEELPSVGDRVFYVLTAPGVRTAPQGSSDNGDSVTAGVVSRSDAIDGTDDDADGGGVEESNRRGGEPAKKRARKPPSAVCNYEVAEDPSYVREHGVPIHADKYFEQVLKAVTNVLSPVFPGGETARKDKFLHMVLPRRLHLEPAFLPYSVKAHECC
Assay: biochemical
Conditions: modified SPA assay: compounds diluted in 100% DMSO, 4.5 mM DTT in polymerase buffer; read-out: polymerase IC50 (μM) HCMV
Procedure: The HCMV polymerase assay is performed using a scintillation proximity assay (SPA) as described in several references, such as N. D. Cook, et al., Pharmaceutical Manufacturing International, pages 49-53 (1992); K. Takeuchi, Laboratory Practice, September issue (1992); U.S. Pat. No. 4,568,649 (1986); which are incorporated by reference herein. Reactions are performed in 96-well plates. […] Plates are incubated 10 min. at 37 ° C., then equilibrated to room temperature, and counted on a Packard Topcount. […]
Where a name gives a salt, the structure may show the parent alone.
reported endpoint: IC50 (µM)
Expressed in µM, but write only the number.

See these solved cases before continuing.
> print(dat)
                                   molecule                           measured.target  reported.endpoint  units.of.measure  observed.result
1     O=C(NCc1ccc(Cl)cc1)c1cnc2sc(Br)cc2c1O  HCMV polymerase (Human cytomegalovirus, UniProt P08546)               IC50                µM             10.8
2  Cn1cc(C(=O)NCc2ccc(Br)cc2)c(=O)c2cc(CN3CCOCC3)sc21  HCMV polymerase (Human cytomegalovirus, UniProt P08546)               IC50                µM              3.8
3  Cn1cc(C(=O)NCc2ccc(Cl)cc2)c(=O)c2cc(CN3CCSCC3)sc21  HCMV polymerase (Human cytomegalovirus, UniProt P08546)               IC50                µM              2.6

# next molecule below
Return reported IC50; argument: CCN(CC)CCn1cc(C(=O)NCc2ccc(Cl)cc2)c(=O)c2cc(C#CCO)sc21 [Example 18, hydrochloride]
1.7
